# protocol: Selective toxicity: potassium ion effluence from human erythrocytes versus Saccharomyces cerevisiae cells
# Type: cell-based
# test-conditions: human erythrocytes vs saccharomyces cerevisiae; 50% effluence of potassium ions from human erythrocytes / from Saccharomyces cerevisiae cells; column head is drawing 1; read-out: Selective toxicity index EK50/DK50
Field: selectivity ratio. Provide a value for each of the compounds that follow.
Just the number.

If you can, please state the reported selectivity ratio value of C[C@@H]1[C@H](O)[C@@H](C)/C=C/C=C/CC/C=C/C=C/C=C/C=C/[C@H](O[C@@H]2O[C@H](C)[C@@H](O)[C@H](NC3O[C@H](CO)[C@@H](O)[C@H](O)[C@H]3O)[C@@H]2O)C[C@@H]2O[C@](O)(C[C@@H](O)[C@H](O)CC[C@@H](O)C[C@@H](O)C[C@@H](O)CC(=O)O[C@H]1C)C[C@H](O)[C@H]2C(=O)O (some centres unmarked) .
17.3

If you can, please state the reported selectivity ratio value of C[C@@H]1[C@H](O)[C@@H](C)/C=C/C=C/C=C/C=C/C=C/C=C/C=C/[C@H](O[C@@H]2O[C@H](C)[C@@H](O)[C@H](NC3O[C@H](CO)[C@@H](O)[C@H](O)[C@H]3O)[C@@H]2O)C[C@@H]2O[C@](O)(C[C@@H](O)C[C@@H](O)[C@H](O)CC[C@@H](O)C[C@@H](O)CC(=O)O[C@H]1C)C[C@H](O)[C@H]2C(=O)O (some centres unmarked) .
1.37

###

# protocol: Acute toxicity on intravenous administration in mice
# test-conditions: mouse, in vivo, administered intravenously, read-out: DL50 (the source's name)
measure-name: LD50 (mg/kg)
Give the value in mg/kg but do not write mg/kg after it.

If you can, please state the reported LD50 value of C[C@@H]1[C@H](O)[C@@H](C)/C=C/C=C/CC/C=C/C=C/C=C/C=C/[C@H](O[C@@H]2O[C@H](C)[C@@H](O)[C@H](NC3O[C@H](CO)[C@@H](O)[C@H](O)[C@H]3O)[C@@H]2O)C[C@@H]2O[C@](O)(C[C@@H](O)[C@H](O)CC[C@@H](O)C[C@@H](O)C[C@@H](O)CC(=O)O[C@H]1C)C[C@H](O)[C@H]2C(=O)O (some centres unmarked) .
19

###

Field: selectivity ratio. Provide a value for each of the compounds that follow.
# protocol: Selective toxicity: hemolysis of human erythrocytes versus potassium ion effluence from Saccharomyces cerevisiae cells
# Assay type: cell-based
# test-conditions: human erythrocytes vs saccharomyces cerevisiae; 50% hemolysis of human erythrocytes / 50% potassium effluence from Saccharomyces cerevisiae cells; column head is drawing 2; read-out: Selective toxicity index EH50/DK50
Just the number.

If you can, please state the reported selectivity ratio value of C[C@@H]1[C@H](O)[C@@H](C)/C=C/C=C/CC/C=C/C=C/C=C/C=C/[C@H](O[C@@H]2O[C@H](C)[C@@H](O)[C@H](NC3O[C@H](CO)[C@@H](O)[C@H](O)[C@H]3O)[C@@H]2O)C[C@@H]2O[C@](O)(C[C@@H](O)[C@H](O)CC[C@@H](O)C[C@@H](O)C[C@@H](O)CC(=O)O[C@H]1C)C[C@H](O)[C@H]2C(=O)O (some centres unmarked) .
45

If you can, please state the reported selectivity ratio value of C[C@@H]1[C@H](O)[C@@H](C)/C=C/C=C/C=C/C=C/C=C/C=C/C=C/[C@H](O[C@@H]2O[C@H](C)[C@@H](O)[C@H](NC3O[C@H](CO)[C@@H](O)[C@H](O)[C@H]3O)[C@@H]2O)C[C@@H]2O[C@](O)(C[C@@H](O)C[C@@H](O)[C@H](O)CC[C@@H](O)C[C@@H](O)CC(=O)O[C@H]1C)C[C@H](O)[C@H]2C(=O)O (some centres unmarked) .
24
